# measured-on: Luciferin 4-monooxygenase (Photinus pyralis)
# protocol-description: Confirmatory firefly luciferase (FLuc) qHTS assay for identification of artifact compounds
# measurement-conditions: purified FLuc enzyme, luminescence, 5 min; series mostly up to 38.9 µM
Inconclusive results are not listed. Calls of active or inactive are those of the source. Calls come from the whole dose curve; as a rule, active = well fitted inhibition curve with a large enough effect; inconclusive = small, poorly fitted or top-dose-only effect; inactive = no such curve, though single readings can be large or run the other way.
Write down one outcome, taken from 1 = active, -1 = inactive

Look over these answered cases.
- compound: "Cc1cccc(-c2noc(-c3cc(C(C)C)[nH]n3)n2)c1"
  measured-on: "Luciferin 4-monooxygenase (Photinus pyralis)"
  class-assignment: 1
- compound: "CO[C@@H]1[C@@H](O[C@@H]2O[C@H](C)[C@@H](O[C@H]3C[C@@](C)(O)[C@@H](OC(=O)CC(C)C)[C@H](C)O3)[C@H](N(C)C)[C@H]2O)[C@@H](CC=O)C[C@@H](C)C(=O)/C=C/C2OC2C[C@@H](C)OC(=O)C[C@H]1OC(C)=O (stereo partly specified)"
  measured-on: "Luciferin 4-monooxygenase (Photinus pyralis)"
  class-assignment: -1
- compound: "COC(=O)c1scc(-c2ccc(C)cc2)c1S(=O)(=O)Nc1ccc(NC(C)=O)cc1"
  measured-on: "Luciferin 4-monooxygenase (Photinus pyralis)"
  class-assignment: -1
- compound: "COc1ccc(C(=O)Nc2noc3ccccc23)cc1"
  measured-on: "Luciferin 4-monooxygenase (Photinus pyralis)"
  class-assignment: 1
- compound: "O=C(NCc1ccccc1)c1cnc2sc(N3CCCC3)nn2c1=O"
  measured-on: "Luciferin 4-monooxygenase (Photinus pyralis)"
  class-assignment: -1

I'd appreciate the recorded outcome for COc1cc(C2C(C(=O)Nc3ccc(Cl)cc3)=C(C)Nc3nc(SC)nn32)cc(OC)c1OC (stereo unspecified) from this test. -1

I'd appreciate the recorded outcome for "O=C(c1ccc2c(c1)N(Cc1ccccc1)C(=O)c1ccccc1S2(=O)=O)N1CCN(c2ccccc2)CC1" from this test. -1

I'd appreciate the recorded outcome for "O=C(Nc1cc(Cl)ccc1Cl)c1cc(S(=O)(=O)NCCc2ccccc2)ccc1F" from this test. -1

I'd appreciate the recorded outcome for CCC(Sc1ncc(S(=O)(=O)c2ccc(Cl)cc2)c(=O)[nH]1)C(=O)Nc1ccc(OC)cc1 (stereo unspecified) from this test. -1

I'd appreciate the recorded outcome for "Cc1ccc(-c2nc(S(=O)(=O)c3ccc(C)cc3)c(N3CCCCC3)o2)cc1" from this test. -1

I'd appreciate the recorded outcome for "CCOC(=O)c1c(C)[nH]c(C)c1S(=O)(=O)N1CCC(C(=O)N2CCN(c3ccccc3)CC2)CC1" from this test. -1

I'd appreciate the recorded outcome for "COc1ccccc1CNc1ccc(-c2nc(-c3cccnc3)no2)cc1[N+](=O)[O-]" from this test. -1

I'd appreciate the recorded outcome for "CCc1ccc(S(=O)(=O)c2nnn3c2nc(N2CCOCC2)c2sccc23)cc1" from this test. -1

I'd appreciate the recorded outcome for COC(=O)CN1C(=O)[C@@H]2[C@H](C1=O)[C@@H]1CC(C(=O)OC)=C[C@@H](C(=O)OC)C3C1=C(C(=O)C31CCCCC1)[C@@H]2C (stereo partly specified) from this test. -1

I'd appreciate the recorded outcome for "Cc1ccc(NC(=O)c2ccc3[nH]c(C)cc(=O)c3c2)cc1" from this test. -1

I'd appreciate the recorded outcome for "Cc1ccc(CNS(=O)(=O)c2ccc(-c3cc(C(F)(F)F)on3)s2)cc1" from this test. -1

I'd appreciate the recorded outcome for "COc1ccc(-c2noc(N3CCC(C(=O)N4CCN(c5cccc(C)c5C)CC4)CC3)n2)cc1" from this test. -1

I'd appreciate the recorded outcome for "Cn1c(=O)[nH]c2cc(-c3noc(-c4cccc(Cl)c4)n3)ccc21" from this test. -1

I'd appreciate the recorded outcome for Nc1ncnc2c1ncn2[C@@H]1O[C@H](COP(=O)(O)OP(=O)(O)OC[C@H]2OC(O)[C@H](O)[C@@H]2O)[C@@H](O)[C@H]1O (stereo partly specified) from this test. -1

I'd appreciate the recorded outcome for "O=S(=O)(c1ccc2c(c1)OCCO2)N1CCN(S(=O)(=O)c2c(F)cccc2F)CC1" from this test. -1

I'd appreciate the recorded outcome for "CCCc1cc(=O)[nH]c(SCc2nc(-c3ccccc3F)no2)n1" from this test. -1

I'd appreciate the recorded outcome for CCc1ccc(NC(=O)CN2C(=O)C3(SCC(=O)N3c3ccc(F)c(F)c3)c3ccccc32)cc1 (stereo unspecified) from this test. -1

====

# measured-on: Luciferin 4-monooxygenase (Photinus pyralis) (UniProt P08659)
# protocol-description: Confirmatory firefly luciferase (FLuc) qHTS assay for identification of artifact compounds
# measurement-conditions: purified FLuc enzyme, luminescence, 5 min; series mostly up to 38.9 µM
Records with an inconclusive call do not appear. The source made the active and inactive calls. The call rests on the fitted dose curve; in most records, active means well fitted inhibition curve with a large enough effect; inconclusive means small, poorly fitted or top-dose-only effect; inactive means no such curve, though single readings can be large or run the other way.
Write down one outcome, taken from active, inactive

- molecule: "C[C@H](NC(c1ccc(F)cc1)c1ccc2cccnc2c1O)c1ccccc1 (stereo partly drawn)"
  class-assignment: "inactive"
- molecule: "Cc1ccc(NC(=O)CSc2ccc(-c3cccs3)nn2)cc1Cl"
  class-assignment: "inactive"
- molecule: "O=C(Nc1cc(-c2ccc(Cl)cc2)no1)c1ccc(F)cc1"
  class-assignment: "inactive"
- molecule: "CC(C)(C)C(=O)OCC(=O)[C@H]1CC[C@H]2[C@@H]3CCC4=CC(=O)CC[C@]4(C)[C@H]3CC[C@]12C"
  class-assignment: "inactive"
- molecule: "O=C(Nc1nnc(-c2ccncc2)s1)Nc1cccc2ccccc12"
  class-assignment: "inactive"

I'd appreciate the recorded outcome for "O=C1Nc2ccccc2/C1=C\c1ccc(O)cc1" from this test. inactive

I'd appreciate the recorded outcome for "CCC(=O)N1CCc2cc(CNC(=O)Nc3cc(OC)c(OC)c(OC)c3)ccc21" from this test. inactive

I'd appreciate the recorded outcome for "CC(C)(C)OC(=O)N1CCN(c2ccc(NCc3ccc(-c4ccc(C#N)cc4)nc3)cc2)CC1" from this test. inactive

I'd appreciate the recorded outcome for "Cc1cc(Cl)ccc1NC(=O)c1cc2ccccn2n1" from this test. active

I'd appreciate the recorded outcome for "Nc1ccc(F)cc1F" from this test. inactive

I'd appreciate the recorded outcome for "Clc1ccc(-c2noc3ncnc(N4CCCCC4)c23)cc1" from this test. inactive

I'd appreciate the recorded outcome for "COc1cccc(-c2nnc(Nc3nc4ccc(OC)cc4s3)o2)c1" from this test. inactive

I'd appreciate the recorded outcome for "Cc1ccc(-n2nnnc2CNC(=O)C(C)C)cc1C" from this test. inactive

====

# measured-on: Luciferin 4-monooxygenase (Photinus pyralis) (UniProt P08659)
# protocol-description: Confirmatory firefly luciferase (FLuc) qHTS assay for identification of artifact compounds
# measurement-conditions: purified FLuc enzyme, luminescence, 5 min; series mostly up to 38.9 µM
Inconclusive results are not listed. Calls of active or inactive are those of the source. Calls follow the shape of the dose curve; as a rule, active = well fitted inhibition curve with a large enough effect; inconclusive = small, poorly fitted or top-dose-only effect; inactive = no such curve, though single readings can be large or run the other way.
Write down one outcome, taken from active, inactive

- compound: "CC(C)Nc1ccc(-c2nc(-c3ccccn3)no2)cc1[N+](=O)[O-]"
  class-assignment: "active"
- compound: "c1cc(CNc2ccnc(-c3ccc4c(c3)OCO4)n2)ccn1"
  class-assignment: "inactive"
- compound: "CNc1cccc(S(=O)(=O)N2CCCN(S(=O)(=O)c3ccc4c(c3)OCCO4)CC2)c1"
  class-assignment: "inactive"
- compound: "COc1ccc(Cn2c(CNS(=O)(=O)c3ccc(Cl)s3)nc3cccnc32)cc1"
  class-assignment: "inactive"

I'd appreciate the recorded outcome for "COc1ccc(NC(=O)c2ncoc2-c2ccco2)cc1Cl" from this test. inactive

I'd appreciate the recorded outcome for C[C@H](CCC(=O)NCCS(=O)(=O)O)C1CC[C@H]2C3CC[C@@H]4C[C@H](O)CC[C@]4(C)C3C[C@H](O)[C@]12C (stereo not given in full) from this test. inactive

I'd appreciate the recorded outcome for "CC(C)=CCC/C(C)=C/C=O" from this test. inactive

I'd appreciate the recorded outcome for "Cc1ccc(CN(C(=O)COc2ccc([N+](=O)[O-])cc2)c2ccccn2)cc1" from this test. inactive

I'd appreciate the recorded outcome for "Cc1ccc(-c2nc3scc(CCNS(=O)(=O)c4ccc(F)c(C)c4)n3n2)cc1" from this test. inactive

I'd appreciate the recorded outcome for CC1(C)OC2CC(=O)OCC23C1CC(=O)C1(C)C3CC[C@@]2(C)[C@H](c3ccoc3)OC(=O)C3OC312 (stereo not given in full) from this test. inactive

====

# measured-on: Luciferin 4-monooxygenase (Photinus pyralis)
# protocol-description: Confirmatory firefly luciferase (FLuc) qHTS assay for identification of artifact compounds
# measurement-conditions: purified FLuc enzyme, luminescence, 5 min; series mostly up to 38.9 µM
Records with an inconclusive call do not appear. Activity calls are given as the source filed them. Calls come from the whole dose curve; as a rule, active = well fitted inhibition curve with a large enough effect; inconclusive = small, poorly fitted or top-dose-only effect; inactive = no such curve, though single readings can be large or run the other way.
Write down one outcome, taken from Yes for active, No for inactive

Look over these answered cases.
- compound: "Cc1nc(CC(=O)Nc2ccc(C)c(C)c2)cs1"
  class-assignment: "No"
- compound: "COc1ccc(OC(=O)c2nc(SCc3ccccc3C)ncc2Cl)cc1"
  class-assignment: "No"
- compound: "Cc1nc(-c2ccc(Cl)cc2)sc1CCNC(=O)c1ccco1"
  class-assignment: "No"

I'd appreciate the recorded outcome for "[O][C@H]1[C@@H](O)[C@@H](CO)O[C@@H](O[C@@H]2[C@@H]3OC[C@H]2O[C@H](O[C@@H]2[C@@H](O)[C@H](C[C@@H]4[C@@H]5OC[C@H]4O[CH][C@@H]5O)O[C@H](CO)[C@@H]2OS(=O)(=O)O)[C@@H]3OS(=O)(=O)O)[C@@H]1O" from this test. No

I'd appreciate the recorded outcome for "Cc1c(Cl)cccc1NC(=O)c1cccc(NC(=O)N2CCSc3ncccc32)c1" from this test. No

I'd appreciate the recorded outcome for COc1ccc(-c2c3c(=O)n(C)c(=O)n(C)c3c3n2-c2ccccc2NC3c2ccccc2OC)cc1 (stereo not drawn) from this test. No

I'd appreciate the recorded outcome for "C=CCNc1nnc(-c2cccc3ccccc23)o1" from this test. No

I'd appreciate the recorded outcome for "Cc1c(CCNC(=O)Cc2ccc(F)cc2)sc2nc(-c3ccc(F)cc3)nn12" from this test. No

I'd appreciate the recorded outcome for COc1ccc(C2N(Cc3ccccc3)C(=O)c3ccccc3N2C)cc1COc1ccc(NC(C)=O)cc1 (stereo not drawn) from this test. No

I'd appreciate the recorded outcome for COc1ccc(C2Nc3ccccc3C(=O)N2CCCN(C)C)cc1COc1ccc(NC(C)=O)cc1 (stereo not drawn) from this test. No

I'd appreciate the recorded outcome for "Cc1ccc(-c2nc(S(=O)(=O)c3ccc(Cl)cc3)c(N3CCCCC3)o2)cc1" from this test. No

I'd appreciate the recorded outcome for COc1ccc(N2CC(NC(=O)COc3ccccc3)CC2=O)cc1OC (stereo not drawn) from this test. No

I'd appreciate the recorded outcome for "O=C(Nc1ccc(Oc2ccccc2)cc1)Nc1nnc(-c2ccncc2)s1" from this test. No
